Target: CYP3A4 (Homo sapiens, UniProt P08684)
Sequence (P08684 whole entry): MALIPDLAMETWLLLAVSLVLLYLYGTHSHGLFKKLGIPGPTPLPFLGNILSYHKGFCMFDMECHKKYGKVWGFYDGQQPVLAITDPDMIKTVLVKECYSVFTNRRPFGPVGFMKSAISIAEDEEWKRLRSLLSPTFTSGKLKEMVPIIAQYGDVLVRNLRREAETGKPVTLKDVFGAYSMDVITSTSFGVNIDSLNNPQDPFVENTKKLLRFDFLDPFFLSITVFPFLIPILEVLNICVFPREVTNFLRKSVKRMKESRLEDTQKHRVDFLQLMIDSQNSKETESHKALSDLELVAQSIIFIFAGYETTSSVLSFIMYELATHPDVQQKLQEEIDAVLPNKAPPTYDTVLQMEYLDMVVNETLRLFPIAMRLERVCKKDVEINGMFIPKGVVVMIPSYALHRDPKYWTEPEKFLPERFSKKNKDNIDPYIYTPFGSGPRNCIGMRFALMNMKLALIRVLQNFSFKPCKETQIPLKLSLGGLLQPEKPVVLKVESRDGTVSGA
Experiment: Determination of compound Kiapp against recombinant CYP3A4 enzyme (BFC fluorescent substrate)
Assay type: biochemical
Conditions: Super. enzyme preparation, read-out: Kiapp (BFC, Super.)
Protocol: 1. Determination of compound Kiapp A determination of the Kiapp of the compounds of the invention against recombinant CYP3A4 enzyme was performed as follows. The assay was performed in a 100 mM sodium phosphate buffer pH 7.0, 5 mM TCEP and containing 2% dimethylformamide (final concentration) upon addition of substrate and inhibitor. […] The oxidation of the coumarin substrate was recorded by a 96-well plate reader POLARstar (BMG LABTECH, Offenburg, Germany). […]
pKi: −log10 of the molar value.
measurement kind: pKi

// known answers, use as guide
CCOc1ccncc1NS(=O)(=O)c1ccccc1C(=O)NC(C)(C)CC: 7.54
CCCCNC(=O)c1ccccc1S(=O)(=O)Nc1cnccc1C: 7.15
COc1cncc(NS(=O)(=O)c2ccccc2C(=O)NC2CCCCC2)c1: 7.44

1 = Cc1cncc(NS(=O)(=O)c2ccccc2C(=O)N(C)Cc2ccccc2F)c1
2 = COc1ccc(CNC(=O)c2ccccc2S(=O)(=O)Nc2cncc(OC)c2)cc1
3 = COc1ccncc1NS(=O)(=O)c1ccccc1C(=O)NC(C)(C)C
4 = COc1cncc(NS(=O)(=O)c2ccc(OCCN3CCNCC3)cc2C(=O)N(C)C(C)C)c1
5 = COc1cncc(NS(=O)(=O)c2ccccc2C(=O)NCc2ccc(Cl)cc2C)c1
# input # sort list by recorded pKi, greatest to least Lab note: final answer is the ordered label list.
# output 5, 1, 2, 3, 4
(5: 8.46, 1: 8.02, 2: 7.35, 3: 6.91, 4: 6.70)
